- MEASUREMENT_TARGET: S1P2 (Homo sapiens, UniProt O95136)
- Sequence (O95136 whole entry, species assumed): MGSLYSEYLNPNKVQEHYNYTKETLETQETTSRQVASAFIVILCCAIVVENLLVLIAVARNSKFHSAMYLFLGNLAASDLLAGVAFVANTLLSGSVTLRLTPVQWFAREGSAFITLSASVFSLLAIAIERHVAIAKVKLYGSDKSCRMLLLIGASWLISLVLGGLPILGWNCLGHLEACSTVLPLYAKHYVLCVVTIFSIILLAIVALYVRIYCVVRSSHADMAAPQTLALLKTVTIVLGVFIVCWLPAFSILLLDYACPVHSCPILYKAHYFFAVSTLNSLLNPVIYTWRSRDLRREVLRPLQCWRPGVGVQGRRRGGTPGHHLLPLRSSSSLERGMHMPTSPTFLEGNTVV
- PROTOCOL: S1P2 values marked (33P S1P)
- Assay type: binding
- CONDITION_DESCRIPTION: value marked (33P S1P)
Exercise: state measured log10(EC50) for each of the compounds provided.
Form field - Quantity: EC50; Unit: nM; Scale: log10

I am curious: what log10(EC50) value has been reported for `Cc1ccc(C)c2c(C)cc(NNC(=O)Nc3cc(Cl)cc(Cl)c3)nc12` ?
2.59

I am curious: what log10(EC50) value has been reported for `CCCCOc1cc(NC(=O)NNc2cc(C(C)C)c3c(n2)c(C)nn3C)cc(Cl)n1` ?
-1.00

I am curious: what log10(EC50) value has been reported for `Cc1ccc(C)c2c(C(C)C)cc(NNC(=O)Nc3cc(Cl)cc(Cl)c3)nc12` ?
2.30

I am curious: what log10(EC50) value has been reported for `Cc1nn(C)c2c(C(C)C)cc(NNC(=O)Nc3cc(Cl)nc(Cl)c3)nc12` ?
0.34

I am curious: what log10(EC50) value has been reported for `CCOc1cc(NC(=O)NNc2cc(C(C)C)c3c(n2)c(C)nn3C)ccn1` ?
2.42

I am curious: what log10(EC50) value has been reported for `Cc1cc(NNC(=O)Nc2cc(Cl)nc(Cl)c2)nc2ccccc12` ?
2.29

I am curious: what log10(EC50) value has been reported for `CCOc1cc(NC(=O)NNc2cc(C(C)C)c3c(n2)c(C)nn3C)cc(Cl)n1` ?
0.18

I am curious: what log10(EC50) value has been reported for `CCCCOc1cc(NC(=O)NCc2cc(C(C)C)c3c(n2)c(C)nn3C)cc(Cl)n1` ?
-1.00

I am curious: what log10(EC50) value has been reported for `Cc1cc(NNC(=O)Nc2cc(Cl)cc(Cl)c2)nc2ncccc12` ?
2.29

I am curious: what log10(EC50) value has been reported for `Cc1nn(C)c2c(C(C)C)cc(CNC(=O)Nc3cc(Cl)cc(Cl)c3)nc12` ?
1.42

I am curious: what log10(EC50) value has been reported for `CCCc1cc(NC(=O)NCc2cc(C(C)C)c3c(n2)c(C)nn3C)cc(Cl)n1` ?
0.32

I am curious: what log10(EC50) value has been reported for `CC(C)c1cc(NNC(=O)Nc2cc(Cl)cc(Cl)c2)nc2ccccc12` ?
2.27

I am curious: what log10(EC50) value has been reported for `CCCOc1cc(NC(=O)NNc2cc(C(C)C)c3c(n2)c(C)nn3C)cc(Cl)n1` ?
-0.70

I am curious: what log10(EC50) value has been reported for `CCCc1cc(NC(=O)NNc2cc(C(C)C)c3c(n2)c(C)nn3C)cc(Cl)n1` ?
0.70

I am curious: what log10(EC50) value has been reported for `COc1cc(OC)c(NC(=O)NNc2cc(C(C)C)c3c(n2)c(C)nn3C)cc1Cl` ?
1.60

I am curious: what log10(EC50) value has been reported for `Cc1nn(C)c2c(C(C)C)cc(CNC(=O)Nc3cc(Cl)nc(Cl)c3)nc12` ?
1.38

I am curious: what log10(EC50) value has been reported for `CC(C)c1cc(NNC(=O)Nc2cc(Cl)cc(Cl)c2)nc2ncccc12` ?
1.91

I am curious: what log10(EC50) value has been reported for `CCCCc1cc(NC(=O)NNc2cc(C(C)C)c3c(n2)c(C)nn3C)cc(Cl)n1` ?
0.76

---

Exercise: state measured EC50 for each of the compounds provided.
- MEASUREMENT_TARGET: S1P3 (Homo sapiens, UniProt Q99500)
- Construct: expressed in transfected cells
- Sequence (Q99500 whole entry, species assumed): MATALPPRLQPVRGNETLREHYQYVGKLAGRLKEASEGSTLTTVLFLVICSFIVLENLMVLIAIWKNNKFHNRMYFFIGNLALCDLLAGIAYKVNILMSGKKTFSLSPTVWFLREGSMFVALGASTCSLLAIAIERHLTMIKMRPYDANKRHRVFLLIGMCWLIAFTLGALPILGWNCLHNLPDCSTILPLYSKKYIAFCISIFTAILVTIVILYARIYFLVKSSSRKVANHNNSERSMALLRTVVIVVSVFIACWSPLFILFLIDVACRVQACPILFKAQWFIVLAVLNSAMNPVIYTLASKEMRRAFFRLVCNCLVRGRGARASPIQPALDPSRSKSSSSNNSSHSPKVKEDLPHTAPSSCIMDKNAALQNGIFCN
- PROTOCOL: FLIPR calcium assay, cells expressing S1P3 and a G-protein
- Type: cell-based

I am curious: what EC50 value has been reported for Cc1nn(C)c2c(C)cc(CNC(=O)Nc3cc(Cl)cc(Cl)c3)nc12 [Example 5] ?
> 8300 nM

I am curious: what EC50 value has been reported for Cc1nn(C)c2c(C(C)C)cc(CNC(=O)Nc3cc(Cl)cc(Cl)c3)nc12 [Example 9] ?
> 8300 nM

I am curious: what EC50 value has been reported for Cc1nn(C)c2c(C(C)C)cc(CNC(=O)Nc3cc(Cl)nc(Cl)c3)nc12 [Example 2] ?
> 8300 nM

---

Exercise: state measured log10(EC50) for each of the compounds provided.
- MEASUREMENT_TARGET: S1P2 (Homo sapiens, UniProt O95136)
- PROTOCOL: FLIPR calcium assay, cells expressing S1P2 and a G-protein
- Assay type: cell-based
Form field - Quantity: EC50; Unit: nM; Scale: log10

Missing value: log10(EC50), S1P2 (Homo sapiens, UniProt O95136), entry Cc1nn(C)c2c(C(C)C)cc(NNC(=O)Nc3cc(C(F)(F)F)cc(C(F)(F)F)c3)nc12 [Example 7] . Fill in?
2.29

Missing value: log10(EC50), S1P2 (Homo sapiens, UniProt O95136), entry Cc1nn(C)c2c(C(C)C)cc(NNC(=O)Nc3cc(Cl)nc(Cl)c3)nc12 [Example 6] . Fill in?
1.04

Missing value: log10(EC50), S1P2 (Homo sapiens, UniProt O95136), entry Cc1nn(C)c2c(C(C)C)cc(CNC(=O)Nc3cc(Cl)nc(Cl)c3)nc12 [Example 2] . Fill in?
2.07

Missing value: log10(EC50), S1P2 (Homo sapiens, UniProt O95136), entry Cc1nn(C)c2c(C(C)C)cc(NNC(=O)Nc3cc(Cl)cc(Cl)c3)nc12 [Example 1] . Fill in?
1.67

Missing value: log10(EC50), S1P2 (Homo sapiens, UniProt O95136), entry CCCCc1cc(NC(=O)NNc2cc(C(C)C)c3c(n2)c(C)nn3C)cc(Cl)n1 [Example 3] . Fill in?
0.90

Missing value: log10(EC50), S1P2 (Homo sapiens, UniProt O95136), entry Cc1nn(C)c2c(C(C)C)cc(CNC(=O)Nc3cc(Cl)cc(Cl)c3)nc12 [Example 9] . Fill in?
2.17

Missing value: log10(EC50), S1P2 (Homo sapiens, UniProt O95136), entry CCCc1cc(NC(=O)NNc2cc(C(C)C)c3c(n2)c(C)nn3C)cc(Cl)n1 [Example 11] . Fill in?
0.95

Missing value: log10(EC50), S1P2 (Homo sapiens, UniProt O95136), entry CCCc1cc(NC(=O)NCc2cc(C(C)C)c3c(n2)c(C)nn3C)cc(Cl)n1 [Example 12] . Fill in?
1.38

Missing value: log10(EC50), S1P2 (Homo sapiens, UniProt O95136), entry Cc1nn(C)c2c(C)cc(CNC(=O)Nc3cc(Cl)cc(Cl)c3)nc12 [Example 5] . Fill in?
2.13

Missing value: log10(EC50), S1P2 (Homo sapiens, UniProt O95136), entry COc1cc(NC(=O)NCc2cc(C(C)C)c3c(n2)c(C)nn3C)cc(Cl)n1 [Example 10] . Fill in?
1.76

---

Exercise: state measured log10 EC50 for each of the compounds provided.
- MEASUREMENT_TARGET: S1P2 (Homo sapiens, UniProt O95136)
- PROTOCOL: S1P2 values marked (33P S1P)
- Format: binding
- CONDITION_DESCRIPTION: value marked (33P S1P)
Form field - Quantity: EC50; Unit: nM; Scale: log10

I am curious: what log10 EC50 value has been reported for `Cc1nn(C)c2c(C(C)C)cc(NNC(=O)Nc3cc(Cl)cc(Cl)c3)nc12` ?
0.46

I am curious: what log10 EC50 value has been reported for `Cc1cc(NNC(=O)Nc2cc(Cl)nc(Cl)c2)nc2c(C)cccc12` ?
2.59

I am curious: what log10 EC50 value has been reported for `CCOc1cc(NC(=O)NCc2cc(C(C)C)c3c(n2)c(C)nn3C)cc(Cl)n1` ?
-0.30

I am curious: what log10 EC50 value has been reported for `Cc1cc(NNC(=O)Nc2cc(Cl)cc(Cl)c2)nc2c(C)cccc12` ?
2.65

I am curious: what log10 EC50 value has been reported for `COc1cc(NC(=O)NCc2cc(C(C)C)c3c(n2)c(C)nn3C)cc(Cl)n1` ?
1.00

---

- MEASUREMENT_TARGET: S1P2 (Homo sapiens)
- PROTOCOL: FLIPR calcium assay, cells expressing S1P2 and a G-protein
- Assay type: cell-based
- CONDITION_DESCRIPTION: antagonism versus sphingosine 1-phosphate
PROPERTY_NAME: FLIPR (% Antagonism) S1P2

Some entries whose results are on file:
CCCCc1cc(NC(=O)NNc2cc(C(C)C)c3c(n2)c(C)nn3C)cc(Cl)n1 [Example 3] : (99) %
COc1cc(NC(=O)NCc2cc(C(C)C)c3c(n2)c(C)nn3C)cc(Cl)n1 [Example 10] : (98) %
Cc1nn(C)c2c(C(C)C)cc(NNC(=O)Nc3cc(C(F)(F)F)cc(C(F)(F)F)c3)nc12 [Example 7] : (98) %
CCCc1cc(NC(=O)NNc2cc(C(C)C)c3c(n2)c(C)nn3C)cc(Cl)n1 [Example 11] : (98) %

Moving on to the next compound.
I am curious: what FLIPR (% Antagonism) S1P2 value has been reported for CCCc1cc(NC(=O)NCc2cc(C(C)C)c3c(n2)c(C)nn3C)cc(Cl)n1 [Example 12] ?
(99) %
